Property: CDC, Daudi EC50; scope: individual binders
Target: T1, human CD20 (human, UniProt P11836 1-297)
T1 sequence: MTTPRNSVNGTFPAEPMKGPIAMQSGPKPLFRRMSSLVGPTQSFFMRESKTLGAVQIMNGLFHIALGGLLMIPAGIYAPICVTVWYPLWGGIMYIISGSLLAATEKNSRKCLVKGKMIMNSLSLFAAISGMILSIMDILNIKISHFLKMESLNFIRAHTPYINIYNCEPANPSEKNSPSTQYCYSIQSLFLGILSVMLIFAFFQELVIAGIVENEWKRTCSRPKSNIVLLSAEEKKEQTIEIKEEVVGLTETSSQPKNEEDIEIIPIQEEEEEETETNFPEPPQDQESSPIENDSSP
Experiment: cell-based or functional assay

binder	value_operator	CDC, Daudi EC50 / nM
rituximab (RITUXAN, IDEC Pharmaceuticals Corp.) (antibody, V domains shown) VH: QVQLQQPGAELVKPGASVKMSCKASGYTFTSYNMHWVKQTPGRGLEWIGAIYPGNGDTSYNQKFKGKATLTADKSSSTAYMQLSSLTSEDSAVYYCARSTYYGGDWYFNVWGAGTTVTVSA VL: QIVLSQSPAILSASPGEKVTMTCRASSSVSYIHWFQQKPGSSPKPWIYATSNLASGVPVRFSGSGSGTSYSLTISRVEAEDAATYYCQQWTSNPPTFGGGTKLEIK	=	0.84
9C11-14 (antibody, V domains shown, Fully human IgG, constant region not specified; also called 9C11-14N) VH: QVQLVESGGDSVKPGGSLRLSCAASGFTFSDSYMTWIRQAPGKGLEWVSFISSSGSTIYYADSVKGRFTISRDNVKKSLYLQMNRLRAEDTAVYYCAREEPGNYVYYGMDVWGQGTTVTVSS VL: EIVVTQSPATLSLSPGERATLSCRTSQTTTSYLAWYRQKPGQAPRLLIYDASNRAAGIPARFSGSGSGTDFTLTINSLEPEDFAVYYCQLRTNWITFGQGTRLEIK	=	7.14
2C11-4 (antibody, V domains shown, Fully human IgG, constant region not specified; also called 2C11-4N) VH: EVQLVESGGGLVQPGRSLRLSCAASGFTFRDYAMHWVRQGPGKGLEWVSGISWNTDYIGYADSVKGRFTISRDNAKNSLYLQMNSLRPEDTALYYCAKDARYGRDNYYGMDVWGQGTTVTVSS VL: EIVLTQSPATLSLSPGERATLSCRASQSVSRYLAWYQQKPGQAPRLLIHDASNRATGIPARFSGSGSGTDFTLTITSLEPEDFVVYYCQQRSDWPITFGQGTRLEIK	>	50
9D4-7 (antibody, V domains shown, Fully human IgG, constant region not specified; also called 9D4-7N) VH: EVQLVESGGGLVQPGRSLRLSCAASGFTFYDYAMHWVRQAPGKGLEWVSGISWNSDTIGYADSVKGRFTISRDNAKNSLYLQMNSLRAEDTALYYCTKDGSYGHFYSGLDVWGQGTTVTVSS VL: EIVLTQSPATLSLSPGERATLSCRASQSVSSYLAWYQQKPGQAPRLLIYVASNRATGIPARFSGSGSGTDFTLTISSLEPDDFAVYYCQQRYYWPLTFGGGTKVEIK	=	0.22
8G6-5 (antibody, V domains shown, Fully human IgG, constant region not specified; also called 8G6-5N) VH: EVQLAESGGDLVQSGRSLRLSCAASGITFHDYAMHWVRQPPGKGLEWVSGISWNSDYIGYADSVKGRFTISRDNAKKSLYLQMNSLRPDDTALYYCVKDFHYGSGSNYGMDVWGQGTTVTVSP VL: EIVMTQSPATLSMSPGERATLSCRASQSVSRNLAWYQQKVGQAPRLLISGASTRATGIPARFSGSGSGTEFTLTINSLQSEDFAVYYCQQSNDWPLTFGQGTRLEIK	=	0.21
